# System: Echinochloa crus-galli (ECHCG)
# experimentalProtocol: Post-emergence herbicidal action against ECHCG
# Format: in vivo
# conditionSummary: dosage 320 g/ha
measuredMetric: Post-emergence action against ECHCG in % (%)
I only need the number, in %, no unit after it.

Answered cases to consult:
The reported Post-emergence action against ECHCG in % of the compound CC(Oc1nn(-c2ccccn2)c(-c2ccc(F)nc2)c1C(F)(F)F)C(=O)O (stereo not drawn) [Example I-94] was 90

Recorded Post-emergence action against ECHCG in % (compound COC(=O)[C@@H](C)Oc1nn(-c2nc(F)ccc2F)c(-c2ccc(F)nc2)c1C1CC1 [Example I-298] ): 90

Notebook: COC(=O)CCOC(=O)C(C)Oc1nn(-c2ccccn2)c(-c2ccc(F)nc2)c1C(F)(F)F (stereo not drawn) [Example I-293] , Post-emergence action against ECHCG in % read as 80

Now turn to the next compound.
Post-emergence action against ECHCG in % reading for CCOC(=O)COc1nn(-c2ncccc2C(F)(F)F)c(-c2cncc(F)c2)c1I [Example I-225] : 90

Data credit: patent US20240041042A1
